System: Spontaneously hypertensive rat
Test: Cardiovascular activities: systolic blood pressure and heart rate in conscious spontaneously hypertensive rats (p.o.)
Format: in vivo
Details: 1.0 mg/kg (p.o.), maximum variation from control
quantity-kind: Blood pressure, Δ%

Guide cases for Blood pressure, Δ%, answers given:
Lookup: Item: CN(C1=NCCN1OCc1cccc[n+]1[O-])c1c(Cl)cccc1Cl [C] Test system: Spontaneously hypertensive rat Read-out: Blood pressure, Δ% Value: ?
Found: +0.3%

Lookup: Item: Cc1cc[n+]([O-])c(CON2CCNC2=Nc2c(Cl)cccc2Cl)c1 [D] Test system: Spontaneously hypertensive rat Read-out: Blood pressure, Δ% Value: ?
Found: -7.0%

Lookup: Item: Cc1ccc(CON2CCNC2=Nc2c(Cl)cccc2Cl)[n+]([O-])c1 [F] Test system: Spontaneously hypertensive rat Read-out: Blood pressure, Δ% Value: ?
Found: -9.6%

Lookup: Item: [O-][n+]1ccccc1CON1CCNC1=Nc1cccc(Cl)c1Cl [B] Test system: Spontaneously hypertensive rat Read-out: Blood pressure, Δ% Value: ?
Found: -4.1%

Here is another compound to look at.
Lookup: Item: [O-][n+]1ccccc1CON1CCNC1=Nc1c(Cl)cccc1Cl [Compound A] Test system: Spontaneously hypertensive rat Read-out: Blood pressure, Δ% Value: ?
Found: -0.2%
